Consider the following proteins and their measured Enzyme Activity Endpoint Assay (purified): Fc readings.
- target: pooled human IgG
property_label: Enzyme Activity Endpoint Assay (purified): Fc (ng/µL)

protein	experimental_result
PRT-154 (protein) MANQEIRYSEVTPYHVTSVWTKGVTPPANFTQGEDVFHAPYVANQGWYDITKTFNGKDDLLCGAATAGNMLHWWFDQNKTQIEAYLKKHPEKQKINFNGEQMFDVKEAIDTKNHQLDSKLFEYFKEKAFPYLSTKHLGVFPDHVIDMFINGYRLSLTNHGPTPVKEGSKDPRGGIFDAVFTRGDQSKLLTSRHDFKEKNLKEISDLIKKELTEGKALGLSHTYANVRINHVINLWGADFDSNGNLKAIYVTDSDSNASIGMKKYFVGVNSAGKVAISAKEIKEDNIGAQVLGLFTLSTGKKSWEKTN	191
PRT-239 (protein) MEVVEVWPYGQNPNGKTEILSQTEDSESLQRLRDIEDFQAEKKMQNVVYTKWLDGVDVKDHDFRKIVDGGTAYYATPLLNGRGFYDINKDFNRDSLLCSAAVAANMFHYWLDINRDNVDRFLRQNPEKHGIIELPDGQLKLSDFLNTYESDHGYRDKSKLFDYISNNFNGGLWTDKLLDNYINGYGYNKKYGRTIEDPTKNTSKINFFKEVFNEKILTNNHQIRNQNEFSVLLSEALYTGKAIGLSYGPAGLRHSLGHIISVWGADLDADGNVVAIYVTDSDDKKLTIGDERVGLKRYKISTDDNNRLRLTAYEETHNTGGQIRGLWTLDTGKYAWADYFDKTEQTGTDQAEQLEHHHHHH	269

FYI, the data here is from patent US20250027068.
